Item-by-item account of pKd
Tested system: FOSL1 (Homo sapiens, UniProt P15407)
Construct: made in house
Assay overview: Direct-binding FRET assay
Conditions used: 23°C; N-terminal rhodamine design; mean or single; read-out: Kd
pKd: −log10 of the molar value. Where no end group is shown, it is not given here.
Reported property: pKd

| Chain | Recorded value |
| --- | --- |
| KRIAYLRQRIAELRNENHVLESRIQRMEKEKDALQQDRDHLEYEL [ATF5-d1] | < 5.30 |
| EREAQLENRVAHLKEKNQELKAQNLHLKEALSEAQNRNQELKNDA [XBP1-d1] | < 6.00 |
| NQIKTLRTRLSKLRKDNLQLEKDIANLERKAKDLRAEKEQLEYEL [ATF4-d1] | < 6.00 |

----------
Tested system: CREB3L3 (Homo sapiens, UniProt Q68CJ9)
Construct: made in house
Sequence (Q68CJ9 243-306 limits assumed): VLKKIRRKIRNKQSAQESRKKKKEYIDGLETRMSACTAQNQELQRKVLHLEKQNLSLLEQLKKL
Assay overview: Direct-binding FRET assay
Conditions used: 23°C; C-terminal rhodamine design; mean or single; read-out: Kd
pKd: −log10 of the molar value. Where no end group is shown, it is not given here.
Measured pKd by item
Reported property: pKd

| Chain | Recorded value |
| --- | --- |
| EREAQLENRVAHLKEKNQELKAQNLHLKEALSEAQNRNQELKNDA [XBP1-d1] | < 6.00 |
| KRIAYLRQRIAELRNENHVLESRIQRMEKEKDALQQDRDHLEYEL [ATF5-d1] | 6.38 |
| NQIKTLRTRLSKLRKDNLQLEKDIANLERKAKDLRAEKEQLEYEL [ATF4-d1] | < 6.00 |

----------
Kd overview
Tested system: ATF6B (Homo sapiens, UniProt Q99941)
Sequence (Q99941 325-388 limits assumed): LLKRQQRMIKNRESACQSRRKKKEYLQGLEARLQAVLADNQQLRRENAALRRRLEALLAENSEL
Assay overview: Direct-binding FRET assay
Parameters: made in house
Conditions used: 4°C; N-terminal rhodamine design; mean or single; read-out: Kd
Where no end group is shown, it is not given here.
Reported property: Kd

| Chain | Reported property | Recorded value |
| --- | --- | --- |
| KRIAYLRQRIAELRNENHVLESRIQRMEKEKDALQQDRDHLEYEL [ATF5-d1] | Kd | > 5000 nM |
| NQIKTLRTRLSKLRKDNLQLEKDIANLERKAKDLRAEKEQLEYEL [ATF4-d1] | Kd | > 1000 nM |

----------
Documented Kd across a set of sequences
Tested system: BATF (Homo sapiens)
Construct: made in house
Assay overview: Direct-binding FRET assay
Conditions used: 23°C; N-terminal rhodamine design; mean or single; read-out: Kd
Where no end group is shown, it is not given here.
Reported property: Kd

| Chain | Recorded value |
| --- | --- |
| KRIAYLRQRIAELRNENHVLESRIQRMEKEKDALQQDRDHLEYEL [ATF5-d1] | 382 nM |
| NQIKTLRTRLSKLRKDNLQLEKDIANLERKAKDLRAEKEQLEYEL [ATF4-d1] | > 1000 nM |
| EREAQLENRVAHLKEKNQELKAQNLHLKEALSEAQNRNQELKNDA [XBP1-d1] | > 1000 nM |

----------
Tested system: ATF6 (Homo sapiens, UniProt P18850)
Sequence (P18850 306-369 limits assumed): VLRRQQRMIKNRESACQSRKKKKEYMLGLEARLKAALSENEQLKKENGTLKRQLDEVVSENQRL
Assay overview: Direct-binding FRET assay
Design: made in house
Conditions used: 4°C; C-terminal fluorescein design as donor, TAMRA target titrated; read-out: Kd
pKd: −log10 of the molar value. Where no end group is shown, it is not given here.
Each entry below carries its reported pKd.
Reported property: pKd

| Chain | Tested system | Recorded value |
| --- | --- | --- |
| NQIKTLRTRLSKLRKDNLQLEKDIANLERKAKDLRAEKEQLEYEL [ATF4-d1] | ATF6 (Homo sapiens, UniProt P18850) | < 6.00 |
| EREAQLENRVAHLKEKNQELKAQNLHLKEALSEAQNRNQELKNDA [XBP1-d1] | ATF6 (Homo sapiens, UniProt P18850) | < 5.30 |

----------
Tested system: JUNB (Homo sapiens, UniProt P17275)
Construct: made in house
Sequence (P17275 268-331 limits assumed): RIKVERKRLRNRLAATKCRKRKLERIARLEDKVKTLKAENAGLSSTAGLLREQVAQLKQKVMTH
Assay overview: Direct-binding FRET assay
Conditions used: 4°C; C-terminal fluorescein design as donor, TAMRA target titrated; read-out: Kd
Where no end group is shown, it is not given here.
Reported property: Kd

| Chain | Recorded value |
| --- | --- |
| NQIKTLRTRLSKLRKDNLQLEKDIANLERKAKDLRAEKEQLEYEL [ATF4-d1] | > 1000 nM |

----------
Tested system: MAF (Homo sapiens)
Sequence (O75444 288-351 limits assumed): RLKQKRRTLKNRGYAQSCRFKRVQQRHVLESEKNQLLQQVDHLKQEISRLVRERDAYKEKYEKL
Assay overview: Direct-binding FRET assay
Parameters: made in house
Conditions used: 23°C; C-terminal fluorescein design as donor, TAMRA target titrated; read-out: Kd
Where no end group is shown, it is not given here.
Reported property: Kd

| Chain | Recorded value |
| --- | --- |
| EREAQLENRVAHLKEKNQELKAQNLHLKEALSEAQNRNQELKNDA [XBP1-d1] | > 1000 nM |

----------
Tested system: BATF3 (Homo sapiens, UniProt Q9NR55)
Construct: made in house
Sequence (Q9NR55 35-98 limits assumed): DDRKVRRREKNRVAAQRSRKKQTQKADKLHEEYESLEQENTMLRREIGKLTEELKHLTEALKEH
Assay overview: Direct-binding FRET assay
Conditions used: Kd, 23°C; N-terminal rhodamine design; mean or single
Where no end group is shown, it is not given here.

| Chain | Kd |
| --- | --- |
| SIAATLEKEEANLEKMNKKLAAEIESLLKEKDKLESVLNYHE [JUN-d1] | > 1000 nM |

----------
Tested system: HLF (Homo sapiens)
Construct: made in house
Sequence (Q16534 225-288 limits assumed): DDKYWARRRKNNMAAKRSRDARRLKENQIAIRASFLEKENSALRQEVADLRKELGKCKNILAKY
Assay overview: Direct-binding FRET assay
Method: The direct binding assay was performed manually in 384-well plates and is similar to a previously described assay. Wells were filled with 20 μL of 1 mM TCEP-HCl. […] Briefly, the Kd of the designed peptide homodimer was experimentally determined and used with previously determined target homodimer Kd values to determine the heterodimer Kd. […] A minimum 15% change in the donor fluorescence upon titrating the acceptor peptide from 0 to 1000 nM was required for a fit to be attempted. […]
Where no end group is shown, it is not given here.

| Chain | Kd |
| --- | --- |
| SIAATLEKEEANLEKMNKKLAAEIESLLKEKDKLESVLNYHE [JUN-d1] | > 1000 nM |

----------
Tested system: FOSL1 (Homo sapiens, UniProt P15407)
Construct: made in house
Assay overview: Direct-binding FRET assay
Conditions used: 37°C; C-terminal fluorescein design as donor, TAMRA target titrated; read-out: Kd
pKd: −log10 of the molar value. Where no end group is shown, it is not given here.
Reported property: pKd

| Chain | Recorded value |
| --- | --- |
| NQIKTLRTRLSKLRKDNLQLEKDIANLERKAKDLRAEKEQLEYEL [ATF4-d1] | < 6.00 |

----------
Tested system: ATF6B (Homo sapiens, UniProt Q99941)
Assay overview: Direct-binding FRET assay
Set-up: made in house
Conditions used: Kd, 37°C; C-terminal rhodamine design; repeat 1
Where no end group is shown, it is not given here.

| Chain | Kd |
| --- | --- |
| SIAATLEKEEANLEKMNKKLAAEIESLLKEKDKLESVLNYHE [JUN-d1] | > 1000 nM |

----------
Tested system: BACH1 (Homo sapiens, UniProt O14867)
Sequence (O14867 557-620 limits assumed): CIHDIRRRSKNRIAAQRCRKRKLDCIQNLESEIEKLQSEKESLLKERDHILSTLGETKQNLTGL
Assay overview: Direct-binding FRET assay
Design: made in house
Conditions used: 23°C; C-terminal fluorescein design as donor, TAMRA target titrated; read-out: Kd
Description: The direct binding assay was performed manually in 384-well plates and is similar to a previously described assay. Wells were filled with 20 μL of 1 mM TCEP-HCl. […] Briefly, the Kd of the designed peptide homodimer was experimentally determined and used with previously determined target homodimer Kd values to determine the heterodimer Kd. […] A minimum 15% change in the donor fluorescence upon titrating the acceptor peptide from 0 to 1000 nM was required for a fit to be attempted. […]
pKd: −log10 of the molar value. Where no end group is shown, it is not given here.

| Chain | pKd |
| --- | --- |
| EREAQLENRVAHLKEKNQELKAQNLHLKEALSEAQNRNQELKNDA [XBP1-d1] | < 6.00 |
| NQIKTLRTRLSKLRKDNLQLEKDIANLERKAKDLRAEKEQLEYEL [ATF4-d1] | < 6.00 |

----------
Below, each of the sequences is paired with its reported pKd value.
Tested system: NFE2 (Homo sapiens)
Construct: made in house
Sequence (Q16621 266-329 limits assumed): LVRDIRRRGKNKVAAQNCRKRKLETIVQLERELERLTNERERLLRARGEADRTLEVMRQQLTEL
Assay overview: Direct-binding FRET assay
Conditions used: 37°C; C-terminal rhodamine design; mean or single; read-out: Kd
pKd: −log10 of the molar value. Where no end group is shown, it is not given here.

| Chain | Tested system | pKd |
| --- | --- | --- |
| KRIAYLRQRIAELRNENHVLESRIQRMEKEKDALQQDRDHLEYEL [ATF5-d1] | NFE2 (Homo sapiens) | < 5.30 |
| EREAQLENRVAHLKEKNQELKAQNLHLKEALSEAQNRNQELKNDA [XBP1-d1] | NFE2 (Homo sapiens) | < 6.00 |
